# Assay Notes: Population pharmacokinetic analysis
# Assay type: in vivo
# Run Parameters: human, plasma, intravenous
Readout Kind: Vd
Remember to follow the number with its unit.

Given the compound NS(=O)(=O)OC[C@@H]1C[C@@H](n2ccc3c(N[C@H]4CCc5ccccc54)ncnc32)C[C@@H]1O , what is its reported Vd?
117 L
